Entries and their Ratio values follow.
experiment: Ki ratio measured as inhibitory effect against delta and mu opioid receptors
A bare number is all that is needed in reply.

Worked examples, 3 compounds total:
[[record]]
smiles_structure = "CC(=O)O.CC(C)C[C@@H]1NC(=O)[C@H](Cc2ccccc2)NC(=O)CNC(=O)[C@H](NC(=O)[C@@H](N)Cc2ccc(O)cc2)CNC1=O"
numeric_readout = 1.01

[[record]]
smiles_structure = "CC(=O)O.N[C@@H](Cc1ccc(O)cc1)C(=O)N[C@@H]1CCCCNC(=O)[C@H](Cc2ccccc2)NC(=O)CNC1=O"
numeric_readout = 14.4

[[record]]
smiles_structure = "CC(C)C[C@@H]1NC(=O)[C@@H](Cc2ccccc2)NC(=O)CNC(=O)[C@H](NC(=O)[C@@H](N)Cc2ccc(O)cc2)CCNC1=O"
numeric_readout = 8.33


// switching to the query compound
Task item: Please look up its Ratio: CC(=O)O.CC(C)C[C@H]1NC(=O)[C@H](Cc2ccccc2)NC(=O)CNC(=O)[C@H](NC(=O)[C@@H](N)Cc2ccc(O)cc2)CCCCNC1=O
Reply: 4.59

----------
biological target: Delta-type opioid receptor (Rattus norvegicus, UniProt P33533); assay: Inhibition of binding of [3H][D-Ala2,D-Leu5]enkephalin to Opioid receptor delta 1 in the rat brain homogenate; type: tissue-based
Sequence (P33533 whole entry): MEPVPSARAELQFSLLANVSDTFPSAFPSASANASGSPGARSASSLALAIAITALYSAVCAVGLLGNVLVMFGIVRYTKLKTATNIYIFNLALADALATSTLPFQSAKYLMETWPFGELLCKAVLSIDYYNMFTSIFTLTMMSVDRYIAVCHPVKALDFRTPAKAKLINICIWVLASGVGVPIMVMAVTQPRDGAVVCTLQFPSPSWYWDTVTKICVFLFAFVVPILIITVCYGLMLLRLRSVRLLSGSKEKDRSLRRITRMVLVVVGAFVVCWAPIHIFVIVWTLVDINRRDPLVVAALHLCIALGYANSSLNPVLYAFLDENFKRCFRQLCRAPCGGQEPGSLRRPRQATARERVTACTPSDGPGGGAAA
PARAMETER_MEASURED: Ki
Just the number plus its unit, please.

Task item: # get_value(readout= Ki, system= Delta-type opioid receptor (Rattus norvegicus, UniProt P33533)) for CC(=O)O.N[C@@H](Cc1ccc(O)cc1)C(=O)N[C@@H]1CCCCNC(=O)[C@H](Cc2ccccc2)NC(=O)CNC1=O
Reply: 44.7 nM

----------
target: Mu-type opioid receptor (Rattus norvegicus); test: Inhibition of binding of [3H]naloxone to Opioid receptor mu 1 in the rat brain homogenate; assay type: tissue-based
Sequence (P33535 whole entry): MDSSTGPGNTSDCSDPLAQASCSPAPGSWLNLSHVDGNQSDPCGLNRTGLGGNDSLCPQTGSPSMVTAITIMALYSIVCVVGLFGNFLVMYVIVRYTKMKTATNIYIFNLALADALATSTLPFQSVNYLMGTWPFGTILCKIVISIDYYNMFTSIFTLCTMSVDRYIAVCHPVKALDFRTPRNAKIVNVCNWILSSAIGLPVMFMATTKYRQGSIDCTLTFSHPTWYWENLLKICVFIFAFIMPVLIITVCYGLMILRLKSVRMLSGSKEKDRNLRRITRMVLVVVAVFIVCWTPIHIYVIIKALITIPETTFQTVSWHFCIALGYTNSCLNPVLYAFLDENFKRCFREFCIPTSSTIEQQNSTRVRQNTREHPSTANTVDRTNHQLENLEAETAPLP
Entries and their Ki values follow.
Use nM as the unit, but write only the number.

[[record]]
smiles_structure = "CC(=O)O.CCCC[C@@H](NC(=O)[C@@H](N)Cc1ccc(O)cc1)C(=O)NCC(=O)N[C@@H](Cc1ccccc1)C(=O)N[C@@H](CC(C)C)C(N)=O"
numeric_readout = 2.27

[[record]]
smiles_structure = "CC(=O)O.CCC[C@@H](NC(=O)[C@@H](N)Cc1ccc(O)cc1)C(=O)NCC(=O)N[C@@H](Cc1ccccc1)C(=O)N[C@@H](CC(C)C)C(N)=O"
numeric_readout = 3.27

[[record]]
smiles_structure = "CC(C)C[C@@H]1NC(=O)[C@H](Cc2ccccc2)NC(=O)CNC(=O)[C@H](NC(=O)[C@@H](N)Cc2ccc(O)cc2)CCCCNC1=O"
numeric_readout = 12.4

[[record]]
smiles_structure = "CC(C)C[C@@H]1NC(=O)[C@H](Cc2ccccc2)NC(=O)CNC(=O)[C@H](NC(=O)[C@@H](N)Cc2ccc(O)cc2)CCNC1=O"
numeric_readout = 13.8

[[record]]
smiles_structure = "CC(C)C[C@@H]1NC(=O)[C@H](Cc2ccccc2)NC(=O)CNC(=O)[C@H](NC(=O)[C@@H](N)Cc2ccc(O)cc2)CCCNC1=O"
numeric_readout = 31.4

[[record]]
smiles_structure = "CC(=O)O.CC(C)C[C@H]1NC(=O)[C@H](Cc2ccccc2)NC(=O)CNC(=O)[C@H](NC(=O)[C@@H](N)Cc2ccc(O)cc2)CCCCNC1=O"
numeric_readout = 4.73

[[record]]
smiles_structure = "CC(=O)O.N[C@@H](Cc1ccc(O)cc1)C(=O)N[C@@H]1CCCCNC(=O)[C@H](Cc2ccccc2)NC(=O)CNC1=O"
numeric_readout = 3.1


Task item: Please look up its Ki: CC(=O)O.CC[C@@H](NC(=O)[C@@H](N)Cc1ccc(O)cc1)C(=O)NCC(=O)N[C@@H](Cc1ccccc1)C(=O)N[C@@H](CC(C)C)C(N)=O
Reply: 5.61

----------
target: Delta-type opioid receptor (Rattus norvegicus, UniProt P33533); assay: Inhibition of binding of [3H][D-Ala2,D-Leu5]enkephalin to delta receptor in the rat brain homogenate; assay type: tissue-based
PARAMETER_MEASURED: IC50 (nM)
Use nM as the unit, but write only the number.

Task item: # get_value(readout= IC50, system= Delta-type opioid receptor (Rattus norvegicus, UniProt P33533)) for CC(=O)O.CC(C)C[C@@H]1NC(=O)[C@H](Cc2ccccc2)NC(=O)CNC(=O)[C@H](NC(=O)[C@@H](N)Cc2ccc(O)cc2)CNC1=O
Reply: 118

----------
Entries and their Ke values follow.
molecular target: Delta-type opioid receptor (Mus musculus); assay: […] in mouse vas deferens assay for Opioid receptor delta 1; type: functional
Use nM as the unit, but write only the number.

Task item: Please look up its Ke: CC(=O)O.N[C@@H](Cc1ccc(O)cc1)C(=O)N[C@@H]1CCCCNC(=O)[C@H](Cc2ccccc2)NC(=O)CNC1=O
Reply: 0.606

Task item: Please look up its Ke: CC(C)C[C@H](NC(=O)[C@H](Cc1ccccc1)NC(=O)CNC(=O)[C@@H](C)NC(=O)[C@@H](N)Cc1ccc(O)cc1)C(N)=O
Reply: 2.36

Task item: Please look up its Ke: CC(=O)O.CC(C)C[C@H]1NC(=O)[C@H](Cc2ccccc2)NC(=O)CNC(=O)[C@H](NC(=O)[C@@H](N)Cc2ccc(O)cc2)CCCCNC1=O
Reply: 2.37

Task item: Please look up its Ke: CC(C)C[C@@H]1NC(=O)[C@H](Cc2ccccc2)NC(=O)CNC(=O)[C@H](NC(=O)[C@@H](N)Cc2ccc(O)cc2)CCCNC1=O
Reply: 0.216

----------
Entries and their Ke values follow.
target: Mu-type opioid receptor (Cavia porcellus) (UniProt P97266); test: Sensitivity to naloxone against Opioid receptor mu 1 in the guinea pig ileum assay; assay type: functional, tissue-based
Sequence (P97266 whole entry): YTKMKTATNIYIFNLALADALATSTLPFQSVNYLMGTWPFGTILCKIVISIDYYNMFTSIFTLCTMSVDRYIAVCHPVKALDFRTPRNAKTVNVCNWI
Use nM as the unit, but write only the number.

[[record]]
smiles_structure = "CC(C)C[C@H](NC(=O)[C@H](Cc1ccccc1)NC(=O)CNC(=O)[C@@H](C)NC(=O)[C@@H](N)Cc1ccc(O)cc1)C(N)=O"
readout_units = "nM"
numeric_readout = 0.401

[[record]]
smiles_structure = "CC(C)C[C@@H]1NC(=O)[C@H](Cc2ccccc2)NC(=O)CNC(=O)[C@H](NC(=O)[C@@H](N)Cc2ccc(O)cc2)CCCCNC1=O"
readout_units = "nM"
numeric_readout = 0.416

[[record]]
smiles_structure = "CC(=O)O.CC[C@@H](NC(=O)[C@@H](N)Cc1ccc(O)cc1)C(=O)NCC(=O)N[C@@H](Cc1ccccc1)C(=O)N[C@@H](CC(C)C)C(N)=O"
readout_units = "nM"
numeric_readout = 0.181

[[record]]
smiles_structure = "CC(=O)O.CCCC[C@@H](NC(=O)[C@@H](N)Cc1ccc(O)cc1)C(=O)NCC(=O)N[C@@H](Cc1ccccc1)C(=O)N[C@@H](CC(C)C)C(N)=O"
readout_units = "nM"
numeric_readout = 0.729

[[record]]
smiles_structure = "CC(=O)O.CC(C)C[C@H]1NC(=O)[C@H](Cc2ccccc2)NC(=O)CNC(=O)[C@H](NC(=O)[C@@H](N)Cc2ccc(O)cc2)CCCCNC1=O"
readout_units = "nM"
numeric_readout = 0.553


// switching to the query molecule
Task item: Please look up its Ke: CC(=O)O.N[C@@H](Cc1ccc(O)cc1)C(=O)N[C@@H]1CCCCNC(=O)[C@H](Cc2ccccc2)NC(=O)CNC1=O
Reply: 0.875

----------
target: Mu-type opioid receptor (Cavia porcellus, UniProt P97266); assay: Inhibitory potency against Opioid receptor mu 1 in the guinea pig ileum assay; type: functional, tissue-based
Sequence (P97266 whole entry): as the sequence (P97266 whole entry) above
PARAMETER_MEASURED: log10 of IC50 (log10 of the value in nM)
Form field - Quantity: IC50; Unit: nM; Scale: log10

Worked examples, 2 molecules total:
[[record]]
smiles_structure = "CC(=O)O.CCC[C@@H](NC(=O)[C@@H](N)Cc1ccc(O)cc1)C(=O)NCC(=O)N[C@@H](Cc1ccccc1)C(=O)N[C@@H](CC(C)C)C(N)=O"
numeric_readout = 1.37

[[record]]
smiles_structure = "CC(=O)O.CC(C)C[C@H]1NC(=O)[C@H](Cc2ccccc2)NC(=O)CNC(=O)[C@H](NC(=O)[C@@H](N)Cc2ccc(O)cc2)CCCCNC1=O"
numeric_readout = 0.38


Task item: Please look up its log10 of IC50: CC(=O)O.CC[C@@H](NC(=O)[C@@H](N)Cc1ccc(O)cc1)C(=O)NCC(=O)N[C@@H](Cc1ccccc1)C(=O)N[C@@H](CC(C)C)C(N)=O
Reply: 1.46

Task item: Please look up its log10 of IC50: CC(C)C[C@@H]1NC(=O)[C@H](Cc2ccccc2)NC(=O)CNC(=O)[C@H](NC(=O)[C@@H](N)Cc2ccc(O)cc2)CCNC1=O
Reply: 1.15

Task item: Please look up its log10 of IC50: CC(=O)O.N[C@@H](Cc1ccc(O)cc1)C(=O)N[C@@H]1CCCCNC(=O)[C@H](Cc2ccccc2)NC(=O)CNC1=O
Reply: 0.85

Task item: Please look up its log10 of IC50: CC(C)C[C@@H]1NC(=O)[C@H](Cc2ccccc2)NC(=O)CNC(=O)[C@H](NC(=O)[C@@H](N)Cc2ccc(O)cc2)CCCCNC1=O
Reply: 0.68

Task item: Please look up its log10 of IC50: CC(=O)O.CC(C)C[C@@H]1NC(=O)[C@H](Cc2ccccc2)NC(=O)CNC(=O)[C@H](NC(=O)[C@@H](N)Cc2ccc(O)cc2)CNC1=O
Reply: 1.37

Task item: Please look up its log10 of IC50: CC(C)C[C@@H]1NC(=O)[C@H](Cc2ccccc2)NC(=O)CNC(=O)[C@H](NC(=O)[C@@H](N)Cc2ccc(O)cc2)CCCNC1=O
Reply: 1.68

Task item: Please look up its log10 of IC50: CC(=O)O.CCCC[C@@H](NC(=O)[C@@H](N)Cc1ccc(O)cc1)C(=O)NCC(=O)N[C@@H](Cc1ccccc1)C(=O)N[C@@H](CC(C)C)C(N)=O
Reply: 1.39

Task item: Please look up its log10 of IC50: CN1CC[C@]23CCCC[C@H]2[C@H]1Cc1ccc(O)cc13
Reply: 1.23

Origin of values: ChEMBL document CHEMBL1121982
